Molecular target: T1, recombinant human EGFR extracellular domain with 6xHis (human, UniProt P00533 25-645)
T1 construct: In-house produced; also called 6xHis EGFR ECD; soluble human EGFR ECD; not shown: 6xHis tag
Test: SPR competition, competitor 1254
assay_readout: % inhibition (%)

>  <binder>
antibody 1320 (antibody, human IgG1, kappa, V domains shown, Chimeric IgG1 kappa) VH: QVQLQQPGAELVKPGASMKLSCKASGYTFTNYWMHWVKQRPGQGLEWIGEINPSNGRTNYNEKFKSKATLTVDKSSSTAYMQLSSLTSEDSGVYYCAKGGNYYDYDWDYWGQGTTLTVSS VL: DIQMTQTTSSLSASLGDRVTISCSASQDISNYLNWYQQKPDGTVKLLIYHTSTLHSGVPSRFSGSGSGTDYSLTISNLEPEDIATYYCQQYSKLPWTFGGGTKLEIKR

>  <experimental_value>
3

$$$$
>  <binder>
antibody 1347 (antibody, human IgG1, kappa, V domains shown, Chimeric IgG1 kappa) VH: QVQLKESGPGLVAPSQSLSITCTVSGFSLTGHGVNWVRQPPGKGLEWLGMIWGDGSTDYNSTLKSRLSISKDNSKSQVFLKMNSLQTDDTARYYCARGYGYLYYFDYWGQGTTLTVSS VL: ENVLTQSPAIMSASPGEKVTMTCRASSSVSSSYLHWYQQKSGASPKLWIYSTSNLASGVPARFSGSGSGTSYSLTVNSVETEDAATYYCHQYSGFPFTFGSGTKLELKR

>  <experimental_value>
0

$$$$
>  <binder>
antibody 1254 (antibody, human IgG1, kappa, V domains shown, Chimeric IgG1 kappa; also called mAb 1254) VH: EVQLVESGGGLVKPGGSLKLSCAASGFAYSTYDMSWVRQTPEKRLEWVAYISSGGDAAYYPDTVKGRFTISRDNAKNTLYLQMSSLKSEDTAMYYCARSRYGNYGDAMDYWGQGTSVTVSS VL: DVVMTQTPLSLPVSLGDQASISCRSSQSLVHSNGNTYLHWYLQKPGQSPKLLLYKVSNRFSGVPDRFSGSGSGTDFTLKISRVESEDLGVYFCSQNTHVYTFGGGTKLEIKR

>  <experimental_value>
102

$$$$
>  <binder>
antibody 1024 (antibody, human IgG1, kappa, V domains shown, Chimeric IgG1 kappa) VH: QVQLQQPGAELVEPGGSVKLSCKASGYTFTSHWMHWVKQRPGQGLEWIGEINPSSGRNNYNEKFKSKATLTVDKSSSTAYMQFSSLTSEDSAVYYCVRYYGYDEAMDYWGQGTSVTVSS VL: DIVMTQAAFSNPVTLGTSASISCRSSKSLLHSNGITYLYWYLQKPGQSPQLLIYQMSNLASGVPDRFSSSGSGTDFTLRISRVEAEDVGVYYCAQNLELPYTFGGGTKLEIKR

>  <experimental_value>
5

$$$$
>  <binder>
antibody 992 (antibody, human IgG1, kappa, V domains shown, Chimeric mouse/human IgG1 kappa; the VL entry includes the human kappa constant region) VH: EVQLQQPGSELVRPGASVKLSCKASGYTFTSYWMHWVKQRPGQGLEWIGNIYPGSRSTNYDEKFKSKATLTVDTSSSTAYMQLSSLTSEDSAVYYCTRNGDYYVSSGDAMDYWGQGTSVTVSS VL: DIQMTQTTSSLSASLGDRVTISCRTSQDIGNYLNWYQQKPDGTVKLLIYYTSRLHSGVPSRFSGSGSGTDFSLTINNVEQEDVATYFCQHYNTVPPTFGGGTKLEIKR

>  <experimental_value>
128

$$$$
